- measurement-description: NCI Yeast Anticancer Drug Screen. Data for the bub3 strain (AID 167)
- experimental-context: S. cerevisiae bub3 mutant strain, at 5.0 µM (retest, dose inferred, filed as 0.5), active compounds read high
Compounds without any hit were thinned out: in the full panel of roughly 79,000, 15% have a hit.
recorded-metric: growth inhibition (%)
Give the value in % but do not write % after it.

Below are worked cases with known answers.
Record request: growth inhibition value, item C=C1CC(CCCl)(c2ccccc2)OC1=O (stereo unspecified)
37

Look at this compound and give its reported growth inhibition. `Cc1ccccc1N=Cc1cc(Cl)ccc1O`
-68

More entries:
Which growth inhibition value belongs to CC(=O)OCC(C)Cc1cc2c(cc1Br)OCO2 (stereo unspecified) ?
7
